Entry source: patent US20170145112A1

Molecular target: T1, Cynomolgus monkey complement Factor D (cynomolgus monkey, UniProt P00746 26-253 (human entry))
T1 construct: also called cyfD; cFD
T1 chain: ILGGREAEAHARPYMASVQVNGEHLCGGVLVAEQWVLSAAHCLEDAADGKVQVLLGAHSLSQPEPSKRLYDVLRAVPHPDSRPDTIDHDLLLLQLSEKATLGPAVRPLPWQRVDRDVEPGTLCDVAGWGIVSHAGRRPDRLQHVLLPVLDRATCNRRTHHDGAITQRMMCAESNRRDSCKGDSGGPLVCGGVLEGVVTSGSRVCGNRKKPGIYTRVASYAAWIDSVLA
Test: SPR (Biacore T200), Fab format; cynomolgus Factor D (column 'KD (pM) cFD (cyno)')
I'd appreciate it if you could supply pKd values for the items below.
Please treat pKd as minus the base-10 logarithm of the molar concentration.

Suppose we examine the binder Lampalizumab (Fab, V domains shown, Humanized anti-Factor D Fab fragment; also called aFD.WT; FCFD4515S) VH: EVQLVQSGPELKKPGASVKVSCKASGYTFTNYGMNWVRQAPGQGLEWMGWINTYTGETTYADDFKGRFVFSLDTSVSTAYLQISSLKAEDTAVYYCEREGGVNNWGQGTLVTVSS VL: DIQVTQSPSSLSASVGDRVTITCITSTDIDDDMNWYQQKPGKVPKLLISGGNTLRPGVPSRFSGSGSGTDFTLTISSLQPEDVATYYCLQSDSLPYTFGQGTKVEIKR ; what pKd value has been reported?
10.52

Suppose we examine the binder hu20D12.v2.3 Fab (Fab, V domains shown) VH: EVQLVQSGAEVKKPGASVKVSCKASGYTFTSYYMYWVRQAPGQGLEWIGEINPYSGDTNFNEKFKSRATLTVDTSTSTAYLELSSLRSEDTAVYYCAREGGFAYWGQGTLVTVSS VL: DIQMTQSPSSLSASVGDRVTITCKASQNVDTDVAWFQQKPGKAPKGLIRSASSRYSGVPSRFSGSGSGTDFTLTISSLQPEDFATYYCQQYNNYPLTFGQGTKVEIKR ; what pKd value has been reported?
10.62

Suppose we examine the binder hu20D12.v2.15 Fab (Fab, V domains shown) VH: EVQLVQSGAEVKKPGASVKVSCKASGYTFTSYYMYWVRQAPGQGLEWIGEINPYSGETNFNEKFKSRATLTVDTSTSTAYLELSSLRSEDTAVYYCAREGGFAYWGQGTLVTVSS VL: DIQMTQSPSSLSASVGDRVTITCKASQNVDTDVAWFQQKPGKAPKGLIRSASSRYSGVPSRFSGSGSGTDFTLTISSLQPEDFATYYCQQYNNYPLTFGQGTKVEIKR ; what pKd value has been reported?
10.57

Suppose we examine the binder hu20D12.v2.14 Fab (Fab, V domains shown) VH: EVQLVQSGAEVKKPGASVKVSCKASGYTFTSYYMYWVRQAPGQGLEWIGEINPTSGETNFNEKFKSRATLTVDTSTSTAYLELSSLRSEDTAVYYCAREGGFAYWGQGTLVTVSS VL: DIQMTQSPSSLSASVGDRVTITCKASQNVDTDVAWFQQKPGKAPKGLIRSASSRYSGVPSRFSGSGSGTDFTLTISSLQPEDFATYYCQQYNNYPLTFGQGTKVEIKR ; what pKd value has been reported?
10.30
